System: HCT116 cells
ASSAY_DETAILS: Lactate dehydrogenase (LDH) release assay
Format: cell-based
MEASUREMENT_CONTEXT: 0% FBS 4Hr
QUANTITY_KIND: LDH: Cytotoxicity assay % Effect (%)
Answers are plain numbers, in %.

What does the record list as LDH: Cytotoxicity assay % Effect for CC(=O)N[C@@H](CCCCN=[N+]=[N-])C(=O)NCCC(=O)N[C@@H](CC(C)C)C(=O)N[C@H](C(=O)N[C@@H](Cc1ccccc1)C(=O)N[C@]1(C)CCCCCCC=CCCC[C@@](C)(C(=O)N[C@@H](CO)C(=O)N[C@@H](C)C(=O)N[C@@H](C)C(N)=O)NC(=O)[C@H](CC2CCC2)NC(=O)[C@H](CCC(N)=O)NC(=O)[C@H](C)NC(=O)[C@H](Cc2c[nH]c3ccccc23)NC(=O)[C@H](Cc2ccc(O)cc2)NC(=O)[C@H](CCCCN)NC1=O)[C@@H](C)O [MP-548, AZIDE-ATSP-7041 (E5K)] ?
84.33

***
What does the record list as LDH: Cytotoxicity assay % Effect for CC(=O)N[C@@H](CCCCN=[N+]=[N-])C(=O)NCCC(=O)N[C@@H](C)C(=O)N[C@H](C(=O)N[C@@H](Cc1ccccc1)C(=O)N[C@]1(C)CCCCCCC=CCCC[C@@](C)(C(=O)N[C@@H](CO)C(=O)N[C@@H](C)C(=O)N[C@@H](C)C(N)=O)NC(=O)[C@H](CC2CCC2)NC(=O)[C@H](CCC(N)=O)NC(=O)[C@H](C)NC(=O)[C@H](Cc2c[nH]c3ccccc23)NC(=O)[C@H](Cc2ccc(O)cc2)NC(=O)[C@H](CCC(=O)O)NC1=O)[C@@H](C)O [MP-952, AZIDE-ATSP-7041 (L1A)] ?
11.9

----------
ASSAY_DETAILS: Experimental LogD (partition coefficient)
MEASUREMENT_CONTEXT: not stated, Partition Coeff LogD
Positions of bridges follow the written chain, without caps; N, C: chain ends. Non-standard residues stand in square brackets, D forms with d. Residues, ends and D or L forms follow the SMILES beside them. Lys(N3) = [N-]=[N+]=NCCCC[C@H](N)C(=O)O; R8 = C=CCCCCCC[C@@](C)(N)C(=O)O; Cba = N[C@@H](CC1CCC1)C(=O)O; S5 = C=CCCC[C@](C)(N)C(=O)O; βAla = NCCC(=O)O
QUANTITY_KIND: logD
Answers are plain numbers.

What does the record list as logD for `CC(=O)N[C@H](CC(C)C)C(=O)N[C@H](C(=O)N[C@@H](Cc1ccccc1)C(=O)N[C@]1(C)CCCCCCC=CCCC[C@@](C)(C(=O)N[C@@H](CO)C(=O)N[C@H](C)C(=O)N[C@@H](C)C(N)=O)NC(=O)[C@H](CC2CCC2)NC(=O)[C@H](CC(C)C)NC(=O)[C@H](CCC(N)=O)NC(=O)[C@H](Cc2c[nH]c3ccccc23)NC(=O)[C@H](Cc2ccc(O)cc2)NC(=O)[C@H](CCC(=O)O)NC1=O)[C@@H](C)O` ?
2.8

// below: logD requested for another compound
What does the record list as logD for CC(=O)N[C@@H](CCCCN=[N+]=[N-])C(=O)NCCC(=O)N[C@@H](CC(C)C)C(=O)N[C@H](C(=O)N[C@@H](CC1CCC1)C(=O)N[C@]1(C)CCCCCCC=CCCC[C@@](C)(C(=O)N[C@@H](CO)C(=O)N[C@@H](C)C(=O)N[C@@H](C)C(N)=O)NC(=O)[C@H](Cc2c[nH]c3ccccc23)NC(=O)[C@H](CCC(N)=O)NC(=O)[C@H](C)NC(=O)[C@H](Cc2ccccc2)NC(=O)[C@H](Cc2ccc(O)cc2)NC(=O)[C@H](CCC(=O)O)NC1=O)[C@@H](C)O [MP-791] (Ac-[Lys(N3)][βAla]LT[Cba][R8]EYFAQW[S5]SAA-NH2; staple 6-13) ?
1.34

These measurements were taken from paper PMC10786919.
